The measured values listed here are drawn from patent US20230081720A1.

Biological target: Mcl-1 protein (Homo sapiens, UniProt Q07820)
Sequence (Q07820 whole entry): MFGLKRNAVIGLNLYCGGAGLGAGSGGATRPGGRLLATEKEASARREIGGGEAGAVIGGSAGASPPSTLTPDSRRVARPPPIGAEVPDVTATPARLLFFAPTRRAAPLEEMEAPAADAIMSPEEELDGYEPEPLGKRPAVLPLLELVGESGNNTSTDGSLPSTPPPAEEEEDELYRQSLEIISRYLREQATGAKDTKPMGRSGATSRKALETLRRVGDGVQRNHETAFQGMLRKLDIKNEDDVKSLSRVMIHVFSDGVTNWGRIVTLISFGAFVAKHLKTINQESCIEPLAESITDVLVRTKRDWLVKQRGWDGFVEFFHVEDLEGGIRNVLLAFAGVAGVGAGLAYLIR
Experiment: Inhibition of Mcl-1 by fluorescence polarization (FP)
Format: binding
Settings: fluorescein-labelled ligand 1 nM, Mcl-1 protein 5 nM
Attribute: IC50
Give a bare numeral; the unit nM is implied.

| Compound | Experimental target | Measured metric | Experimental value |
| --- | --- | --- | --- |
| COc1ccccc1-c1nccc(COc2ccccc2C[C@@H](Oc2ncnc3sc(-c4cc(N)c(F)c(F)c4)c(-c4ccc(OCCN5CCN(C)CC5)c(Cl)c4C)c23)C(=O)O)n1 [C13] | Mcl-1 protein (Homo sapiens, UniProt Q07820) | IC50 | 2.2 |
| Cc1c(-c2c(-c3ccc(F)cc3)sc3ncnc(O[C@H](Cc4ccccc4OCc4ccnc(-c5ccccc5CO)n4)C(=O)O)c23)ccc(OCCN2CCN(C)CC2)c1Cl [C6] | Mcl-1 protein (Homo sapiens, UniProt Q07820) | IC50 | 1.18 |

Would you kindly look at the next entry?
input: Report the value of IC50 obtained on Mcl-1 protein (Homo sapiens, UniProt Q07820) for COc1ccccc1-c1nccc(COc2ccccc2C[C@@H](Oc2ncnc3sc(-c4ccc(F)cc4)c(-c4ccc(OCCN5CCNCC5)c(Cl)c4C)c23)C(=O)O)n1 [C3] .
output: 0.948

* * *

System: NOMO-1
Assay type: cell-based
Settings: CD74 ADC with the named linker-payload, 5 days; read-out: NOMO-1 IC50
Counter-ions that a name gives are not always drawn.
Here the recorded IC50 is given for each entry.
Write the number in nM without appending the unit.

Worked examples follow.
| Molecule | IC50 (nM) |
| --- | --- |
| COc1ccccc1-c1nccc(COc2ccccc2C[C@@H](Oc2ncnc3sc(-c4ccc(F)cc4)c(-c4ccc(OCCN5CC[N+](C)(Cc6ccc(NC(=O)[C@H](CCCNC(N)=O)NC(=O)[C@@H](NC(=O)CCOCCN7C(=O)C=CC7=O)C(C)C)cc6COCc6cn(CCOC(=O)NS(=O)(=O)NCCOCCO[C@@H]7O[C@H](CO)[C@@H](O)[C@H](O)[C@H]7O)nn6)CC5)c(Cl)c4C)c23)C(=O)O)n1 [L63-P1, trifluoroacetate] | 0.714 |
| COc1ccccc1-c1nccc(COc2ccccc2C[C@@H](Oc2ncnc3sc(-c4ccc(F)cc4)c(-c4ccc(OCCN5CC[N+](C)(Cc6ccc(NC(=O)[C@H](CCCNC(N)=O)NC(=O)[C@@H](NC(=O)CCOCCN7C(=O)C=CC7=O)C(C)C)cc6COCc6cn(CCOC(=O)NS(=O)(=O)NCCOCCOCCO[C@@H]7O[C@H](CO)[C@@H](O)[C@H](O)[C@H]7O)nn6)CC5)c(Cl)c4C)c23)C(=O)O)n1 [L62-P1, trifluoroacetate] | 3.41 |

Now for another entry.
input: Using known records, supply IC50 for COc1ccccc1-c1nccc(COc2ccccc2C[C@@H](Oc2ncnc3sc(-c4ccc(F)cc4)c(-c4ccc(OCCN5CC[N+](C)(Cc6ccc(NC(=O)[C@H](CCCNC(N)=O)NC(=O)[C@@H](NC(=O)CCOCCN7C(=O)C=CC7=O)C(C)C)cc6CN(C)C(=O)C[C@H](NC(=O)[C@@H]6O[C@H](O)[C@@H](O)[C@H](O)[C@H]6O)C(=O)O)CC5)c(Cl)c4C)c23)C(=O)O)n1 [L68-P1]
output: 6.91
